target: human TLR8 (Homo sapiens, UniProt Q9NR97); test: TLR8 inhibition reporter assay (HEK-Blue cells, SEAP reporter, R848 stimulation); conditions: HEK-Blue cells overexpressing human TLR8, R848 15.9 μM
Sequence (Q9NR97 27-1041): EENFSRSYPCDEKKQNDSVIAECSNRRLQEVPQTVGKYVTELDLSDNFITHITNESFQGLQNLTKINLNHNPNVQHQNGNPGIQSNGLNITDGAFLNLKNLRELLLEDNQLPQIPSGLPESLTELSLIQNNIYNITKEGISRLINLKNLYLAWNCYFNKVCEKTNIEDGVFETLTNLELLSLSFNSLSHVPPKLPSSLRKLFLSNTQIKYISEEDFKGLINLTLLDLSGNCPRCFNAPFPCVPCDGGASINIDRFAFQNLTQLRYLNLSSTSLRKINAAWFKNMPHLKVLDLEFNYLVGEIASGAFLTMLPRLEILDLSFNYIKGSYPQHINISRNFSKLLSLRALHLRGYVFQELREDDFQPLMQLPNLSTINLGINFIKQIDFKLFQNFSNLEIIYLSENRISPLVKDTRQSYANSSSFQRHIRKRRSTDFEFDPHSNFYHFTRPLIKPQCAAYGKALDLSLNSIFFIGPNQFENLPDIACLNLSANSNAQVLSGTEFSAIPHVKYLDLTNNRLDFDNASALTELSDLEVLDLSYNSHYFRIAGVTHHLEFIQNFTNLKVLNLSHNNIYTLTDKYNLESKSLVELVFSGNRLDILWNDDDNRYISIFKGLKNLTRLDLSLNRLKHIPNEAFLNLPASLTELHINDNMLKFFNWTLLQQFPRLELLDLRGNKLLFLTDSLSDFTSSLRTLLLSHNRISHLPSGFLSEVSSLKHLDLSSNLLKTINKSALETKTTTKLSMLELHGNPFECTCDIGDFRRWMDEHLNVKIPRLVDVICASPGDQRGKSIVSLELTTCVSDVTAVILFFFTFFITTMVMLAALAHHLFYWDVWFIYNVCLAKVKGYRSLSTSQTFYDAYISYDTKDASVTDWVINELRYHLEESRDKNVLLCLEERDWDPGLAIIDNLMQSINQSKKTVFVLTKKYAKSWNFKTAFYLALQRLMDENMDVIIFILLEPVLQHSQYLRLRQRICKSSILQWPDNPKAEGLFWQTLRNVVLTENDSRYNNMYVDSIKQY
pIC50: −log10 of the molar value.
propertyLabel: pIC50

compound="COc1ccc(-c2[nH]c3ccc(C4CCNCC4F)cc3c2C(C)C)cc1OC (single isomer, unassigned) [Example 324]" measuredon="human TLR8 (Homo sapiens, UniProt Q9NR97)" propertylabel=pIC50 valuemeasured=7.70

I: CCc1c(-c2ccc(OC)c(OC)c2)[nH]c2cc(OC)c(C3CCN(C4CCN(C(C)C)CC4)CC3)cc12
II: COc1ccc(-c2[nH]c3ccc(C4CCN(C(=O)CN(C)C(C)C)CC4)cc3c2C(C)C)cc1OC
III: COc1ccc(-c2[nH]c3ccc(C4CCN(C(=O)CCC(=O)N(C)C)CC4)cc3c2CC(F)(F)F)cc1OC
[in] Returns the items ordered by pIC50, from maximum to minimum. Hello, could you send the labels back in the order asked? Thank you.
[out] II, I, III
(II: 7.62, I: 6.71, III: 6.28)

====

Target: human TLR7 (Homo sapiens)
Sequence (Q9NYK1 27-1049): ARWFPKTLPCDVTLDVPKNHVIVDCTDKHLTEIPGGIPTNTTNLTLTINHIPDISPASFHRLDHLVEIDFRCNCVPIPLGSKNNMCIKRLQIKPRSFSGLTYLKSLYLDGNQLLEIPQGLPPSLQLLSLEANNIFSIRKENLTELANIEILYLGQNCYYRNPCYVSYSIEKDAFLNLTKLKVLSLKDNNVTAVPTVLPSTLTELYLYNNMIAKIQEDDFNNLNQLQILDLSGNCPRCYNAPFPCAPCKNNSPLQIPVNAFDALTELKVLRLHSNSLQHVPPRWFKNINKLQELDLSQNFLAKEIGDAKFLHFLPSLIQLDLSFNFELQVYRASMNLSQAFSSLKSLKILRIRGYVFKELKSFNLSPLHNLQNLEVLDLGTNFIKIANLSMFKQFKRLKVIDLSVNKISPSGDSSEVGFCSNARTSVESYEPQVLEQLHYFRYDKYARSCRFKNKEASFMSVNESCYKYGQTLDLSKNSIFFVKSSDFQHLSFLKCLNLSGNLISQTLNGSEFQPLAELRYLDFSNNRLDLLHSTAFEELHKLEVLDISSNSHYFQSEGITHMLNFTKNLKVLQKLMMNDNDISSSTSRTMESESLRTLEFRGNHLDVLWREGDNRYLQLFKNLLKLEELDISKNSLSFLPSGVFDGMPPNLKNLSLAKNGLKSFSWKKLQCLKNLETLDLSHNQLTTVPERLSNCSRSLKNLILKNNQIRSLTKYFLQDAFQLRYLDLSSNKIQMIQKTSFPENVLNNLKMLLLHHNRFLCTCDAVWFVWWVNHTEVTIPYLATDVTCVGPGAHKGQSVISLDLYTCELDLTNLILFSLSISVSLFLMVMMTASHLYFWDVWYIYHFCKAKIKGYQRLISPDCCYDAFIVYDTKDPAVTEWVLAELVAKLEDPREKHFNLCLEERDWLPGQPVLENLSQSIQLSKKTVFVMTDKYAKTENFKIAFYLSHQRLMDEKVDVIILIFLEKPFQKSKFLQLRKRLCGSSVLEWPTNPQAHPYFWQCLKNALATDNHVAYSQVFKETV
Assay: TLR7 inhibition reporter assay (HEK-Blue cells, SEAP reporter, gardiquimod stimulation)
Settings: HEK-Blue cells overexpressing human TLR7, gardiquimod 7.5 μM
pIC50: −log10 of the molar value. Counter-ions that a name gives are not always drawn.
propertyLabel: pIC50

The cases that follow already have their pIC50 on record.
molecule="COc1ccc(-c2[nH]c3ccc(C4CCN(CC(=O)N[C@H]5CC[C@H](C(C)(C)O)CC5)CC4)cc3c2C(C)C)cc1OC [Example 279]" measuredon="human TLR7 (Homo sapiens)" propertylabel=pIC50 valuemeasured=6.31
molecule="CCc1c(-c2ccc(OC)c(OC)c2)[nH]c2ccc(C3CCN(C4CCN(Cc5c(C)noc5C)CC4)CC3)cc12 [Example 138]" measuredon="human TLR7 (Homo sapiens)" propertylabel=pIC50 valuemeasured=5.45
molecule="CCc1c(-c2ccc(OC)c(OC)c2)[nH]c2ccc(C3CCN(C(=O)CNCC(C)(C)CO)CC3)cc12 [Example 164]" measuredon="human TLR7 (Homo sapiens)" propertylabel=pIC50 valuemeasured=6.80
molecule="CCc1c(-c2ccc(OC)c(OC)c2)[nH]c2ccc(C3CCN(C4CCN(Cc5coc(C)n5)CC4)CC3)cc12 [Example 126]" measuredon="human TLR7 (Homo sapiens)" propertylabel=pIC50 valuemeasured=6.04
molecule="CCc1c(-c2ccc(OC)c(OC)c2)[nH]c2ccc(C3CCN(C4CCN(C5CCCC5)CC4)CC3)cc12 [Example 152]" measuredon="human TLR7 (Homo sapiens)" propertylabel=pIC50 valuemeasured=6.23
molecule="CCN(CC)C(=O)C1CCCN(C(=O)CN2CCC(c3ccc4[nH]c(-c5ccc(OC)c(OC)c5)c(C(C)C)c4c3)CC2)C1 (stereo not drawn) [Example 272]" measuredon="human TLR7 (Homo sapiens)" propertylabel=pIC50 valuemeasured=7.08

1: CNCCN1CCC(c2ccc3[nH]c(-c4ccc(OC)c(OC)c4)c(CC4CC4)c3c2)CC1 [Example 117, di-trifluoroacetic acid]
2: CNCCN1CCC(c2cc3c(C(C)C)c(-c4ccc(OC)c(OC)c4)[nH]c3cc2F)CC1 [Example 208]
3: COc1ccc(-c2[nH]c3ccc(C4CCN(C(=O)CCC(F)(F)F)CC4)cc3c2CC(F)(F)F)cc1OC [Example 350]
[in] List items by pIC50 in falling order. # format: label list in the order the request specifies
[out] 2, 3, 1

A: COc1ccc(-c2[nH]c3ccc(C4CCN(C(=O)CNCC(C)O)CC4)cc3c2C(C)C)cc1OC (stereo not drawn) [Example 210]
B: CCc1c(-c2ccc(OC)c(OC)c2)[nH]c2ccc(C3CCNCC3)cc12 [Example 122]
[in] Consider A and B . Which of these has its pIC50 at a higher number? Write down the label of the entry you select.
[out] A

a: CCN(CC)C(=O)C1CCCN(CC(=O)N2CCC(c3ccc4[nH]c(-c5ccc(OC)c(OC)c5)c(CC(F)(F)F)c4c3)CC2)C1 (stereo not drawn) [Example 418]
b: COc1ccc(-c2[nH]c3ccc(C4CCN(C5CCNCC5)CC4)cc3c2C)cc1OC [Example 2, dihydrochloride]
[in] Compare reported pIC50 values for a and b . Which is lower? Return value: the label identifying the chosen record.
[out] b
(b: 6.01, a: 7.10)

Cited source for all entries: patent US11180474B2
